Test system: rat chronic carcinogenicity bioassay, TD50
Assay: DSSTox (CPDBAS) Carcinogenic Potency Database Summary Rat Bioassay Results
Conditions: TD50_Rat_Note: TD50 is harmonic mean of more than one positive test; TargetSites_Rat_Female: hematopoietic system; lung; mammary gland; stomach; uterus; stronger effect = lower value
PARAMETER_MEASURED: Potency

Query: State its Potency for this compound: `CCCCCN(N=O)C(N)=O`
Result: 0.555 mg/kg/day

----------
Test system: rat chronic carcinogenicity bioassay, TD50
Assay: DSSTox (CPDBAS) Carcinogenic Potency Database Summary Rat Bioassay Results
Settings: TargetSites_Rat_Female: mammary gland; uterus; stronger effect = lower value
PARAMETER_MEASURED: Potency

Query: Give the reported value of Potency for this record: `CCNC(=O)N(CCN(C)C)N=O`
Result: 0.704 mg/kg/day
